// reported protein stability index per item
B1: NET1 (parent)
chain: PTPAKRRSSALWSEMLDITMKESL

variants of: B1; test: protein stability index of a GFP-peptide fusion (GPS, HEK-293T) (PSI 1-6); higher = more stable; details: c terminus: a fixed tail appended;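 note: lentivirally expressed fusions sorted by FACS into six bins by GFP to DsRed ratio, PSI derived from sequencing read proportions per bin multiplied by bin number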
value type: protein stability index

mut	value type	measured
T2H	protein stability index	2.85
E14I	protein stability index	3.13
M20S	protein stability index	3.71
M20D	protein stability index	2.58
K5V	protein stability index	2.41
L11T	protein stability index	1.71
L11P	protein stability index	2.75
D17C	protein stability index	1.53
D17N	protein stability index	2.75
T2W	protein stability index	1.5
P3R	protein stability index	2.5
T19E	protein stability index	1.43
R6D	protein stability index	2.79
S8E	protein stability index	2.63
I18F	protein stability index	2.46
A10D	protein stability index	3.58
K21F	protein stability index	1.17
E14W	protein stability index	1.69
K5T	protein stability index	2.51
E14H	protein stability index	2.2
A4E	protein stability index	2.48
S8D	protein stability index	2.65

Origin of measurements: the supplement of paper PMC10567573
